Attribution: patent US20250243171A1

Target: Ba/F3 stable cells (Homo sapiens, UniProt P00533, DUP771-773, cells depend on it)
Construct: EC50 Ba/F3-EGFR H773-V774insNPH; other: Ba/F3-EGFR H773-V774insNPH cells, 72 h, CCK-8
Sequence (P00533 with tags, fused parts or gaps DUP771-773): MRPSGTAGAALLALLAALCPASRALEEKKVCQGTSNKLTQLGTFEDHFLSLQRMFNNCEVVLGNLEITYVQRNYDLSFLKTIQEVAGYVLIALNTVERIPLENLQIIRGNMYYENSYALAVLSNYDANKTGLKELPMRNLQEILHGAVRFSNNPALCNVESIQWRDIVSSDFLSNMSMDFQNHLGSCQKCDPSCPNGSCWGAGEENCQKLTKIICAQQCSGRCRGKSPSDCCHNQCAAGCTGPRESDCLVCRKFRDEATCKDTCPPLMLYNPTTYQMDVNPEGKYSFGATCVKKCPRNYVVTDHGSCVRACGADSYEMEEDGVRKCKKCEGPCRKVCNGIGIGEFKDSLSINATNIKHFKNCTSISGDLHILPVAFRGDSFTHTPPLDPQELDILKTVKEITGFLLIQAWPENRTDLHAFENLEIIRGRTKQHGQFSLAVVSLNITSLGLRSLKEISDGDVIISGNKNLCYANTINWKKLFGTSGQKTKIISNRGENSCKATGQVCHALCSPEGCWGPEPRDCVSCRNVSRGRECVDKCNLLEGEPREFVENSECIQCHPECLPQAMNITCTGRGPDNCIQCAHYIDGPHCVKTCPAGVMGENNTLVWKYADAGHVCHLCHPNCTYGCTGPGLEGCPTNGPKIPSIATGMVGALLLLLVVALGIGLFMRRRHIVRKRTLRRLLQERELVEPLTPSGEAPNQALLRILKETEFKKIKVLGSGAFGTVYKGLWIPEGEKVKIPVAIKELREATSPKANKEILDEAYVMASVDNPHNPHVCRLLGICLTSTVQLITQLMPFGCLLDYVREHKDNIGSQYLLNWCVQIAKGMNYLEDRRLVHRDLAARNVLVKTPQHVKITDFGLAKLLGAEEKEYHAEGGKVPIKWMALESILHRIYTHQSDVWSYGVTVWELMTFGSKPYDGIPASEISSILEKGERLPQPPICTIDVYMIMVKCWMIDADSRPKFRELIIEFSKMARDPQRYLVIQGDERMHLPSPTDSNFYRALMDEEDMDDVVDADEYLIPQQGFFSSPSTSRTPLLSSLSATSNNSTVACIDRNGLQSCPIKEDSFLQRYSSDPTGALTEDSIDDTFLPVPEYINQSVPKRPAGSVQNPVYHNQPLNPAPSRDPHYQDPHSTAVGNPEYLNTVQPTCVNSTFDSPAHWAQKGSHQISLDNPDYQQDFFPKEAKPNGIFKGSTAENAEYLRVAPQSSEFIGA
Assay: EC50 assay: Ba/F3 stable cell proliferation (CCK-8, 72 h)
Details: Ba/F3-EGFR H773-V774insNPH cells
Entries and their EC50
readout-kind: EC50

{"compound": "COc1cc2ncnc(Nc3ccc(Cl)c(Cl)c3F)c2cc1C1=CCCN(C#N)C1", "result": "> 1000 nM"}
{"compound": "C=CC(=O)N1C2CCC1CC(Oc1cc3c(Nc4cccc5c4CCC5)ncnc3cc1OC)C2 (stereo not drawn)", "result": "≤ 200 nM"}
{"compound": "C=CC(=O)N1CCC(Oc2cc3c(Nc4ccnc5ccccc45)ncnc3cc2OC)CC1", "result": "200 to 1000 nM"}
{"compound": "C=CC(=O)N1CCC(Oc2cc3c(NCc4cc(Cl)ccc4F)ncnc3cc2OC)CC1", "result": "> 1000 nM"}
{"compound": "C=CC(=O)N1C2CCC1CC(Oc1cc3c(Nc4cccc5ccccc45)ncnc3cc1OC)C2 (stereo not drawn)", "result": "≤ 200 nM"}
{"compound": "C#CC(=O)N1CCC(Oc2cc3c(Nc4ccc(Cl)c(Cl)c4F)ncnc3cc2OC)CC1", "result": "≤ 200 nM"}
{"compound": "C=CC(=O)NC1CC(Oc2cc3c(Nc4ccc(C)c5c4CCC5)ncnc3cc2OC)C1 (stereo not drawn)", "result": "> 1000 nM"}
{"compound": "C=CC(=O)N1CCC(Oc2cc3c(Nc4ccc5ccccc5c4)ncnc3cc2OC)CC1", "result": "≤ 200 nM"}
{"compound": "C=CC(=O)N1CCC(Oc2cc3c(Nc4ccc5c(c4)OCO5)ncnc3cc2OC)CC1", "result": "200 to 1000 nM"}
{"compound": "C=CC(=O)N1CCC(Oc2cc3c(NCc4cccc(C)c4)ncnc3cc2OC)CC1", "result": "200 to 1000 nM"}
{"compound": "C=CC(=O)N1CCC(Oc2cc3c(Nc4ccc5c(c4)CCC5)ncnc3cc2OC)CC1", "result": "200 to 1000 nM"}
{"compound": "[2H]C([2H])([2H])Oc1cc2ncnc(Nc3ccc(Cl)c(Cl)c3F)c2cc1C1CN(C(=O)C=C)C1", "result": "≤ 200 nM"}
{"compound": "C=CC(=O)N1C2CCC1CC(Oc1cc3c(Nc4ccc(Cl)c(Cl)c4F)ncnc3cc1OC)C2 (stereo not drawn)", "result": "≤ 200 nM"}
{"compound": "C=CC(=O)N1CCC(Oc2cc3c(NCc4ccc(F)c(Cl)c4)ncnc3cc2OC)CC1", "result": "200 to 1000 nM"}
{"compound": "C=CC(=O)N1CCC(Oc2cc3c(NCc4ccc(Cl)cc4)ncnc3cc2OC)CC1", "result": "200 to 1000 nM"}
{"compound": "C=CC(=O)N[C@H]1C[C@@H](Oc2cc3c(Nc4ccc(Cl)c(Cl)c4F)ncnc3cc2NC)C1", "result": "≤ 200 nM"}
{"compound": "C=CC(=O)N1CCC(Oc2cc3c(C(=O)c4ccc(OC)cc4)ncnc3cc2OC)CC1", "result": "> 1000 nM"}
{"compound": "C=CC(=O)N1CCC(Oc2cc3c(NCc4ccc(F)cc4)ncnc3cc2OC)CC1", "result": "200 to 1000 nM"}
